Where these numbers come from: PubChem BioAssay (NCI)

system: OVCAR-4 ovarian; assay: NCI tumour cell line growth inhibition, 48 h
Collected TGI values appear next to each entry.

Compound | TGI
C=C[C@@H]1C(CO)=CCC2[C@H]1CCC1C(C)(C)C(=O)CC[C@]21C (stereo not given in full) | > 100 µM
COc1ccc(/C=C2/CCc3cc4ccc(OC)cc4[o+]c32)c(O)c1 | 20.6 µM
COc1ccc(CC(C)C(C)Cc2ccc(OC)c(OC)c2)cc1OC (stereo not given) | > 1400 µM
O=c1ncccn1C1C=C(CO)C(O)C1O (stereo not given) | > 50 µM
COc1ccc2cc3c4cc5c(cc4cc[n+]3cc2c1OC)OCO5 | > 100 µM
